- assayed target: T1, biotinylated CRH (human and mouse, not fully specified; biotinylated, position not stated)
- T1 construct: also called Biotin-CRH; biotin-labeled CRH
- T1 peptide: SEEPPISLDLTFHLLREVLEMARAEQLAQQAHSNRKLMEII
- assay info: Octet BLI, biotinylated CRH on SA sensor
quantity: koff (s⁻¹)

binder | quantity | limit qualifier | numeric readout
PR006746 (antibody, human IgG1, kappa, V domains shown, PTM-removal variant of PR006669) VH: EVQLVESGGGLVQPGGSLRLSCAASGFTFSDNWMSWVRQAPGKGLEWVANIKQDSSENYYVDSVKGRFTISRDNAKNSLYLQMNSLRAEDTAVYYCSRGLALWGWGQGTLVTVSS VL: DIVMTHSPLSLPVTPGDPASISCRSSQSLLHSTGYNYLDWYLQKPGQSPQLLIYLGSNRASGVPDRFSGSGSGTDFTLKFIRVEAEDVGVYYCMQALQTPYTFGQGTKLEIKR | koff | = | 8.69e-05
PR302309 (antibody, human IgG1, kappa, V domains shown, Series 7; mouse variable domains with human IgG1 wildtype Fc) VH: QIQLVQSGPELKKPGETVKISCKASGYTFTNYGMNWVKQAPGKVLKWMGWINTYTGEPIYTDDFKGRFAFSLETSASTAYLQINNLKNEDTATYFCSRSTMITTGGVFAYWGQGTLVTVSA VL: DVLMAQTPLSLPVSLGDQASISCRSSQTIVHSDGNTYLEWYLQKPGQSPKLLIYKVSNRFSGVPDRFSGSGSGTDFTLKISRVEAEDLGVYYCFQGSHVPWTFGGGTKLEIKR | koff | = | 4.03e-06
PR006153 (antibody, human IgG1, kappa, V domains shown, PTM-removal variant of PR004290) VH: EVQLVESGGVLVQPGGSLRLSCAASGFTFSSYWMTWVRQAPGKGLEWVANIKQDSSEKYYVDSVKGRFTISRDNAKNSLFLQMNSLRAEDTAVYYCARTLIFDYWGQGTLVTVSS VL: DIVMTQSPLSLPVTPGEPASISCRSSQSLLHSTGYSSLEWYLQKPGQSPQLLIYLGSNRASGVPDRFSGSGSGTDFTLKISRVEAEDVGIYYCMQTLQTPITFGQGTRLEIKR | koff | = | 8.36e-05
PR302334-27 (antibody, human IgG1, kappa, V domains shown, Humanized variant of PR302334) VH: EVQLVESGGGLVQPGGSLRLSCAASGFTFSTYAMSWVRQAPGKGLEWVASIRSGGTTYYPDSVKGRFTISRDNSKNSLYLQMNSLRAEDTAVYYCTRGIDWGQGTTVTVSS VL: DIQMTQSSLSASVSLGDRVTITCKASQSVNNDVAWYQQKPGKAPRLLIYYASNRYTGVPSRFSGSGSGTDFTFTISSLQPEDLATYFCQQDYSSWTFGGGTKVEIKR | koff | < | 1e-07
PR302341-60 (antibody, human IgG1, kappa, V domains shown, Humanized, PTM-removed variant of PR302341) VH: QVQLVQSGAEVKKPGASVKVSCKASGYTFTDYFMKWVRQAPGQRLEWMGVINPNQGDIFYNQKFKGRVTITRDTSASTAYMELSSLRSEDTAVYYCARGTDRALFAYWGQGTLVTVSS VL: DVVMTQSPLSLPVTLGQPASISCRSGQSIVHSDANTYLEWYQQRPGQSPRLLIYKVSNRFSGVPDRFSGSGSGTDFTLKISRVEAEDLGVYYCFQGSHIPWTFGGGTKVEIKR | koff | = | 3.35e-05
PR302341 (antibody, human IgG1, kappa, V domains shown, Series 10; mouse variable domains with human IgG1 wildtype Fc) VH: EVQLQQSGPELVKPGASVKMSCKASGYTFTDYFMKWVKQSHGESLEWIGVINPNNGDIFYNQKFKGKATLTVDKSSSTAFMQLNSLTSEDSAVYSCARGTDRALFAYWGQGTLVAVSA VL: DVLMTQTPLSLPVSLGDQASISCRSGQSIVHSDGNTYLEWYLQRPGQSPRLLIYKVSNRFSGVPDRFSGSGSGTDFTLKISRVGAEDLGIYYCFQGSHIPWTFGGGTKLEVKR | koff | = | 2.18e-07

Taken from patent US20260042834A1.
